# procedure_summary: Half life in Sprague-Dawley rat at 5 mg/kg, iv
# Assay type: ADME, organism-based
# Design: dose 5 mg/kg, route intravenous
# test_settings: in vivo
metric_name: half-life (h)
Please reply with the bare figure in h and do not write the unit itself.

For reference, reported half-life for Cc1nn(C)cc1-c1nc2c(N3CCN(Cc4ccc(Cl)cc4)CC3)c(Cl)cnc2[nH]1 [MOBINITINIB] stands at 4.62

====

Kindly supply the reported metabolised at 0.5 h values for the records listed here.
# procedure_summary: Metabolic stability in mouse liver microsomes assessed as parent compound metabolism after 30 mins by LC-MS analysis
# Assay type: ADME, Microsome
# test_settings: read-out: Drug metabolism
Hi! Could you send only the number? It should be in %, unit omitted.

Item: Cc1cc(CN2CCN(c3c(Cl)cnc4nc(-c5ccc(N6CCN(C)CC6)c(F)c5)[nH]c34)CC2)no1 | metabolised at 0.5 h: 20

The molecule identified as Cc1cc(CN2CCN(c3c(Cl)cnc4[nH]c(-c5ccc(N6CCN(C)CC6)cc5F)nc34)CC2)no1 registered its metabolised at 0.5 h at 65

Sure, the documented metabolised at 0.5 h for Cc1cc(CN2CCN(c3c(Cl)cnc4nc(-c5cccc(CN(C)C)c5)[nH]c34)CC2)no1 is 29

Entry Cc1cc(CN2CCN(c3c(Cl)cnc4[nH]c(-c5cn(C)nc5C)nc34)CC2)no1 ; metabolised at 0.5 h = 48

get_value(item= Cc1cc(CN2CCN(c3c(Cl)cnc4nc(-c5cccc(CN6CCOCC6)c5)[nH]c34)CC2)no1 , readout=metabolised at 0.5 h) returns 69

Record Cc1nn(C)cc1-c1nc2c(N3CCN(Cc4cncnc4)CC3)c(Cl)cnc2[nH]1 , field metabolised at 0.5 h: 78

// field: metabolised at 0.5 h; key: CC(=O)N1CCN(c2ccc(-c3nc4ncc(Br)c(N5CCN(Cc6cc(C)on6)CC5)c4[nH]3)cc2)CC1 ; value = 25

Recorded result, Cc1cc(CN2CCN(c3c(Cl)cnc4[nH]c(-c5cnn(CC(F)F)c5)nc34)CC2)no1 , metabolised at 0.5 h: 12

Cc1cc(CN2CCN(c3c(Cl)cnc4[nH]c(-c5cnn(C(C)C)c5)nc34)CC2)no1 yielded metabolised at 0.5 h of 30

====

# procedure_summary: Metabolic stability in mouse liver microsomes assessed as parent compound metabolism after 30 mins by LC-MS analysis
# Type: ADME, Microsome
# test_settings: read-out: Drug metabolism
Kindly apply the following: T if metabolised at 0.5 h is less than 80%, F in every other case.

stdin: For Cc1cc(CN2CCN(c3c(Cl)cnc4nc(-c5ccc(N6CCN(C)CC6)cc5)[nH]c34)CC2)no1 , is the recorded metabolised at 0.5 h below the cut-off of 80%?
stdout: T

stdin: Is it true that metabolised at 0.5 h reported for Cc1cc(CN2CCN(c3c(Cl)cnc4[nH]c(-c5cccc(N6CCN(C)CC6)c5)nc34)CC2)no1 is less than 80%?
stdout: T

stdin: metabolised at 0.5 h under 80%? Item: Cc1nn(C)cc1-c1nc2c(N3CCN(Cc4ncn(C)n4)CC3)c(Cl)cnc2[nH]1
stdout: F

stdin: For this compound, is metabolised at 0.5 h lower than 80%? CCN1CCN(c2ccc(-c3nc4c(N5CCN(Cc6cc(C)on6)CC5)c(Cl)cnc4[nH]3)cc2)CC1
stdout: T

stdin: Report whether reported metabolised at 0.5 h is lower than 80% (strictly) for Cc1nn(C)cc1-c1nc2ncc(Cl)c(N3CCN(Cc4nonc4C)CC3)c2[nH]1
stdout: F

stdin: Problem: For the compound Cc1nn(C)cc1-c1nc2c(N3CCN(Cc4ccc(Cl)cc4)CC3)c(Cl)cnc2[nH]1 [MOBINITINIB] , is metabolised at 0.5 h under 80%?
stdout: T

stdin: Report whether reported metabolised at 0.5 h is lower than 80% (strictly) for Cc1cc(CN2CCN(c3c(Br)cnc4[nH]c(-c5ccc(N6CCOCC6)cc5)nc34)CC2)no1
stdout: T

stdin: I'd appreciate it if you could check whether CCn1cc(-c2nc3ncc(Cl)c(N4CCN(Cc5cc(C)on5)CC4)c3[nH]2)cn1 has metabolised at 0.5 h smaller than 80%.
stdout: T
